- Test system: Jurkat
- Procedure Details: cell count relative to DMSO control (fraction of control); higher = more cells (less growth inhibition)
- Protocol Conditions: 48 h
Where a name gives a salt, the structure may show the parent alone.
Measured Attribute: cell count
Give bare numbers.

CN(CCOc1ccc(CC2SC(=O)NC2=O)cc1)c1ccccn1 (stereo unspecified) [Rosiglitazone] (concentration: 25 µM) ... 0.718
CC(C)(C)NC(=O)[C@@H]1C[C@@H]2CCCC[C@@H]2CN1C[C@@H](O)[C@H](Cc1ccccc1)NC(=O)[C@H](CC(N)=O)NC(=O)c1ccc2ccccc2n1 [Saquinavir Mesylate] (concentration: 25 µM) ... 0.648
CC(C(=O)O)c1ccc(-c2ccccc2)c(F)c1 (stereo unspecified) [Flurbiprofen] (concentration: 25 µM) ... 0.881

For each entry beneath this line, provide reported cell count.
1. C[C@]12CCC(=O)C=C1CC[C@@H]1[C@@H]2[C@@H](O)C[C@@]2(C)[C@H]1CC[C@]2(O)C(=O)CO [Hydrocortisone] (concentration: 25 µM)
2. CC1(C)O[C@@H]2C[C@H]3[C@@H]4C[C@H](F)C5=CC(=O)C=C[C@]5(C)[C@H]4[C@@H](O)C[C@]3(C)[C@]2(C(=O)CO)O1 [Flunisolide] (concentration: 2.5 µM)
3. CC(=O)N[C@H]1[C@H]([C@H](O)[C@H](O)CO)OC(C(=O)O)=C[C@@H]1NC(=N)N [Zanamivir] (concentration: 25 µM)

output:
1. 0.72
2. 0.893
3. 0.647

* * *

- Tested on: Jurkat
- Procedure Details: mean cell size (FSC-A) relative to DMSO control (fraction of control); higher = larger cells
- Protocol Conditions: 48 h
Where a name gives a salt, the structure may show the parent alone.
Measured Attribute: mean cell size

Here's what some known entries look like.
CN1[C@@H]2CC[C@H]1C[C@@H](OC(c1ccccc1)c1ccccc1)C2 [Benztropine Mesylate] (concentration: 25 µM) ... 0.976
CN(C)CCOc1ccc(/C(=C(/CCCl)c2ccccc2)c2ccccc2)cc1 [Toremifene Base] (concentration: 25 µM) ... 0.956
CCOC(=O)[C@H](CCc1ccccc1)N[C@@H](C)C(=O)N1Cc2ccccc2C[C@H]1C(=O)O [Quinapril·HCl] (concentration: 25 µM) ... 0.998
CN(C)CCCN1c2ccccc2CCc2ccccc21 [Imipramine·HCl] (concentration: 25 µM) ... 0.952
C#C[C@]1(O)CC[C@H]2[C@@H]3CCc4cc(OC)ccc4[C@H]3CC[C@@]21C [Mestranol] (concentration: 25 µM) ... 1.01
NC12CC3CC(CC(C3)C1)C2 [Amantadine·HCl] (concentration: 25 µM) ... 1.01

Turning now to a further compound:
Sure, the documented mean cell size for Cc1ccc(Cl)c(Nc2ccccc2C(=O)O)c1Cl [Meclofenamate·Na] (concentration: 25 µM) is 0.903

* * *

- Test system: Jurkat
- Procedure Details: mean cell size (FSC-A) relative to DMSO control (fraction of control); higher = larger cells
- Protocol Conditions: 48 h
Would you mind telling me the reported mean cell size of each entry?
One number for each entry.

Here's what some known entries look like.
Cc1cccc(Nc2ccncc2S(=O)(=O)NC(=O)NC(C)C)c1 [Torsemide] (concentration: 25 µM) ... 1.01
Nc1ccn([C@@H]2CS[C@H](CO)O2)c(=O)n1 [Lamivudine] (concentration: 25 µM) ... 0.995
CC(=O)Oc1ccccc1C(=O)O [Aspirin (Acetylsalicylic Acid)] (concentration: 25 µM) ... 0.935
CC(=O)[C@@]1(O)CC[C@H]2[C@@H]3C[C@H](C)C4=CC(=O)C=C[C@]4(C)[C@@]3(F)[C@@H](O)C[C@@]21C [Fluorometholone] (concentration: 25 µM) ... 0.914
COc1c(C)c2c(c(O)c1C/C=C(\C)CCC(=O)O)C(=O)OC2 [Mycophenolic Acid] (concentration: 2.5 µM) ... 1.01

For each entry beneath this line, provide reported mean cell size.
1. CCCC1O[C@@H]2C[C@H]3[C@@H]4CCC5=CC(=O)C=C[C@]5(C)[C@H]4[C@@H](O)C[C@]3(C)[C@]2(C(=O)CO)O1 (some centres not stated) [Budesonide] (concentration: 25 µM)
2. CC=CC(=O)N(CC)c1ccccc1C [Crotamiton] (concentration: 25 µM)

output:
0.945
0.972

Source listed as the supplement of paper PMC4709259.
